Test system: ACHN renal
Assay: NCI tumour cell line growth inhibition, 48 h
Entries annotated with measured TGI

Could you share which TGI value was measured for Cc1ccc(Nc2nc3ccccc3c(=O)n2N)cc1 ?
> 100 µM

Could you share which TGI value was measured for COc1cc2c(cc1O)CC[C@@H]1[C@@H]2CC[C@]2(C)[C@@H](OCCCN(C)C)CC[C@@H]12 ?
0.527 µM

Could you share which TGI value was measured for CC1(C)S[C@H](c2ccccc2C(=O)O)N[C@@H]1CC(=O)O ?
> 100 µM

Could you share which TGI value was measured for COc1ccc2c(c1)N=C(N)n1c(nc3ccccc31)S2 ?
> 100 µM

Could you share which TGI value was measured for Cc1ccc(-c2nc3cc(N4CCN(C)CC4)c(F)cc3[nH]2)cc1 ?
70.5 µM
